# Measured On: RORgT (Homo sapiens, UniProt P51449)
# Construct: Gal4 (fusion partner); expressed in transfected cells; host or cells: engineered Jurkat cells (Jurkat pEx/Gal/hRORγ CLBD/HYG pG5luc/blast)
# Protocol Details: RORgT Gal4 Luciferase Reporter Gene Assay
# Type: cell-based
# Stated Conditions: engineered Jurkat cells overexpressing RORgT (LBD or full length) with Gal4 Luc reporter; 18 hours at 37° C.; 40 μM to 0.67 nM; read-out: RORg_GAL4 EC50
Metric Name: EC50 (µM)
Report as a plain number; the unit µM is understood.

Molecule: CC(C)c1cc(Oc2c(Cl)ccc(C(=O)NCC3CCN(S(C)(=O)=O)CC3)c2Cl)ccc1F
EC50 / µM: 0.027

Molecule: COc1ccc(Oc2c(Cl)ccc(C(=O)NCC3CCN(S(C)(=O)=O)CC3)c2Cl)cc1C(C)C
EC50 / µM: 0.012

Molecule: COc1ccc(Oc2c(Cl)ccc(C(=O)NCc3ccc(S(C)(=O)=O)cc3)c2Cl)cc1C(C)C
EC50 / µM: 0.018

Molecule: COc1ncc(Oc2c(Cl)ccc(CNC(=O)c3ccc(S(C)(=O)=O)cc3)c2Cl)cc1C(C)C
EC50 / µM: 0.0085

Molecule: COc1ccc(Oc2c(Cl)cc(NC(=O)Cc3cccc(C#N)c3)cc2Cl)cc1C(C)C
EC50 / µM: 0.121

Give EC50; test system RORgT (Homo sapiens, UniProt P51449); molecule CCc1cc(Oc2c(Cl)cc(NC(=O)Cc3cccnc3)cc2Cl)ccc1OC
0.293

* * *

# Measured On: RORgT (Homo sapiens)
# Construct: Gal4 (fusion partner); expressed in transfected cells; host or cells: engineered Jurkat cells (Jurkat pEx/Gal/hRORγ CLBD/HYG pG5luc/blast)
# Protocol Details: RORgT Gal4 Luciferase Reporter Gene Assay
# Assay type: cell-based
# Stated Conditions: engineered Jurkat cells overexpressing RORgT (LBD or full length) with Gal4 Luc reporter; 18 hours at 37° C.; 40 μM to 0.67 nM; read-out: RORg_GAL4 EC50
# Protocol: The compound and the cells were incubated for 18 hours at 37° C. in a cell culture incubator. Cells were then lysed with 15 uL of Steady-Glo Luciferase Assay reagent (Promega EZ550), followed by centrifuging the assay plates at 1500 RPM for 1 minute. Subsequently, the plates were read on the Envision (PerkinElmer). […]
// assign Yes if EC50 falls strictly below 20 nM, else No (ties count as No)

Recorded results for 3 compounds are shown here.
Compound: CC(C)c1cc(Oc2c(Cl)ccc(C(=O)NCc3ccc(S(C)(=O)=O)cc3)c2Cl)ccc1F
Discrete Label: Yes
--
Compound: COc1ccc(Oc2c(Cl)cc(NC(=O)CCc3ccccc3)cc2Cl)cc1C(C)C
Discrete Label: No
--
Compound: CCS(=O)(=O)N1CCC(C(=O)NCc2ccc(Cl)c(Oc3ccc(OC)c(C(C)C)c3)c2Cl)CC1
Discrete Label: Yes

Below 20 nM on EC50? Entry CC(c1cc(F)cc(Oc2c(Cl)cc(NC(=O)Cc3ccc(S(C)(=O)=O)cc3)cc2Cl)c1)C(F)(F)F (stereo not drawn) [Example 353]
Yes

EC50 under 20 nM? Item: COc1ccc(Oc2c(Cl)cc(NC(=O)Cn3ccnc3)cc2Cl)cc1C(C)C
No

Quick check: does CCS(=O)(=O)N[C@@H]1CCN(CC(=O)Nc2cc(Cl)c(Oc3ccc(OC)c(C(C)C)c3)c(Cl)c2)C1 have EC50 under 20 nM?
No

* * *

# maps each entry to its pEC50
# Measured On: RORgT (Homo sapiens, UniProt P51449)
# Construct: Gal4 (fusion partner); expressed in transfected cells; host or cells: engineered Jurkat cells (Jurkat pEx/Gal/hRORγ CLBD/HYG pG5luc/blast)
# Protocol Details: RORgT Gal4 Luciferase Reporter Gene Assay
# Format: cell-based
# Stated Conditions: engineered Jurkat cells overexpressing RORgT (LBD or full length) with Gal4 Luc reporter; 18 hours at 37° C.; 40 μM to 0.67 nM; read-out: RORg_GAL4 EC50
# Experimental: The compound and the cells were incubated for 18 hours at 37° C. in a cell culture incubator. Cells were then lysed with 15 uL of Steady-Glo Luciferase Assay reagent (Promega EZ550), followed by centrifuging the assay plates at 1500 RPM for 1 minute. Subsequently, the plates were read on the Envision (PerkinElmer). […]
Scale: negative log10 of molar concentration, which is what pEC50 denotes.

Some molecules with recorded pEC50:
Molecule: COc1ncc(Oc2c(Cl)ccc(C(=O)NC(C)c3ccc(S(C)(=O)=O)cc3)c2Cl)cc1C(C)C (stereo not shown) [Example 137]
Measured On: RORgT (Homo sapiens, UniProt P51449)
Quantitative Readout: 7.85
//
Molecule: CCNC(=O)Nc1cc(Cl)c(Oc2ccc(OC)c(C(C)C)c2)c(Cl)c1
Measured On: RORgT (Homo sapiens, UniProt P51449)
Quantitative Readout: 5.72
//
Molecule: COc1ccc(Oc2c(Cl)cc(NC(=O)CCn3cc(S(C)(=O)=O)cn3)cc2Cl)cc1C(C)C
Measured On: RORgT (Homo sapiens, UniProt P51449)
Quantitative Readout: 7.09
//
Molecule: COc1ccc(Oc2c(Cl)cc3[nH]c(Cc4ccccc4)nc3c2Cl)cc1C(C)C
Measured On: RORgT (Homo sapiens, UniProt P51449)
Quantitative Readout: 5.89

Given COC(=O)N1CCC(CNC(=O)c2ccc(Cl)c(Oc3ccc(OC)c(C(C)C)c3)c2Cl)CC1 , report its pEC50 on RORgT (Homo sapiens, UniProt P51449).
6.03

// fetch pEC50; item: COc1ccc(Oc2c(Cl)cc(NC(=O)CCCS(N)(=O)=O)cc2Cl)cc1C(C)C ; system: RORgT (Homo sapiens, UniProt P51449)
6.58

Report the value of pEC50 obtained on RORgT (Homo sapiens, UniProt P51449) for COc1ccc(Oc2c(Cl)ccc(C(=O)NCCCCO)c2Cl)cc1C(C)C .
5.88

State, for RORgT (Homo sapiens, UniProt P51449), measured pEC50 of the molecule listed here: COc1ccc(Oc2c(Cl)cc(NC(=O)NC(C)C)cc2Cl)cc1C(C)C
5.97

Retrieve pEC50 on RORgT (Homo sapiens, UniProt P51449); query COc1ccc(Oc2c(Cl)ccc(C(=O)NCCc3nc4ccccc4s3)c2Cl)cc1C(C)C
6.47

Look up RORgT (Homo sapiens, UniProt P51449) data: pEC50 of COc1ccc(Oc2c(Cl)cc(C(=O)NCc3cnc(C)cn3)cc2Cl)cc1C(C)C , then report it.
5.32

Report pEC50 on RORgT (Homo sapiens, UniProt P51449) for this entry: CC(C)c1cc(F)cc(Oc2c(Cl)cc(NC(=O)Cc3ccc(S(C)(=O)=O)cc3)cc2Cl)c1
7.49

* * *

Reported EC50 values follow for various compounds
# Measured On: RORgT (Homo sapiens)
# Construct: Gal4 (fusion partner); expressed in transfected cells; host or cells: engineered Jurkat cells (Jurkat pEx/Gal/hRORγ CLBD/HYG pG5luc/blast)
# Sequence (P51449 267-516): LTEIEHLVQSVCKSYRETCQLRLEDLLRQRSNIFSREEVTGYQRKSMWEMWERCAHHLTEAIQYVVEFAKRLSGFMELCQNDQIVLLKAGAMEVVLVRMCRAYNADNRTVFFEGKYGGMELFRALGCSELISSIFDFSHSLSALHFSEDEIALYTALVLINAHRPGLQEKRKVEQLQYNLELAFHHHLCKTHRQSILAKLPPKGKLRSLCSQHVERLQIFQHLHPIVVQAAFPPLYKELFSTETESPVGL
# Protocol Details: RORgT Gal4 Luciferase Reporter Gene Assay
# Type: cell-based
# Stated Conditions: engineered Jurkat cells overexpressing RORgT (LBD or full length) with Gal4 Luc reporter; 18 hours at 37° C.; 40 μM to 0.67 nM; read-out: RORg_GAL4 EC50
Give just the numeric value; nM need not be written.

Worked cases, answers included:
Compound: CC(C)c1cc(F)cc(Oc2c(Cl)ccc(C(=O)NCc3cccc(S(C)(=O)=O)c3)c2Cl)c1
EC50 / nM: 187
--
Compound: COc1ccc(Oc2c(Cl)cc(NC(=O)c3ccc(S(C)(=O)=O)cc3)cc2Cl)cc1C(C)C
EC50 / nM: 3270
--
Compound: CCS(=O)(=O)Nc1cc(Cl)c(Oc2ccc(OC)c(C(C)C)c2)c(Cl)c1
EC50 / nM: 4280
--
Compound: COc1ncc(Oc2c(Cl)cc(NC(=O)CN3CC(NS(C)(=O)=O)C3)cc2Cl)cc1C(C)C
EC50 / nM: 373

Give the reported EC50 for this compound. CC(c1cc(F)cc(Oc2c(Cl)ccc(C(=O)NCc3ccc(S(N)(=O)=O)cc3)c2Cl)c1)C(F)(F)F (stereo not shown) [Example 356]
17

# return recorded EC50 for input COc1ccc(Oc2c(Cl)ccc(NC(=O)Cc3ccc(S(N)(=O)=O)cc3)c2Cl)cc1C(C)C
46

Consider the compound CC(c1cc(F)cc(Oc2c(Cl)ccc(C(=O)NCc3ccc(S(N)(=O)=O)cc3)c2Cl)c1)C(F)(F)F (stereo not shown) [Example 355] and give its recorded EC50.
16

Origin of measurements: patent US20220306630A1
